target: T1, Taq DNA polymerase (Thermus aquaticus, UniProt P19821 1-832); test: AMC sensor, antibody immobilised
T1 construct: also called Taq enzyme; Taq DNA enzyme
T1 sequence (P19821 whole entry): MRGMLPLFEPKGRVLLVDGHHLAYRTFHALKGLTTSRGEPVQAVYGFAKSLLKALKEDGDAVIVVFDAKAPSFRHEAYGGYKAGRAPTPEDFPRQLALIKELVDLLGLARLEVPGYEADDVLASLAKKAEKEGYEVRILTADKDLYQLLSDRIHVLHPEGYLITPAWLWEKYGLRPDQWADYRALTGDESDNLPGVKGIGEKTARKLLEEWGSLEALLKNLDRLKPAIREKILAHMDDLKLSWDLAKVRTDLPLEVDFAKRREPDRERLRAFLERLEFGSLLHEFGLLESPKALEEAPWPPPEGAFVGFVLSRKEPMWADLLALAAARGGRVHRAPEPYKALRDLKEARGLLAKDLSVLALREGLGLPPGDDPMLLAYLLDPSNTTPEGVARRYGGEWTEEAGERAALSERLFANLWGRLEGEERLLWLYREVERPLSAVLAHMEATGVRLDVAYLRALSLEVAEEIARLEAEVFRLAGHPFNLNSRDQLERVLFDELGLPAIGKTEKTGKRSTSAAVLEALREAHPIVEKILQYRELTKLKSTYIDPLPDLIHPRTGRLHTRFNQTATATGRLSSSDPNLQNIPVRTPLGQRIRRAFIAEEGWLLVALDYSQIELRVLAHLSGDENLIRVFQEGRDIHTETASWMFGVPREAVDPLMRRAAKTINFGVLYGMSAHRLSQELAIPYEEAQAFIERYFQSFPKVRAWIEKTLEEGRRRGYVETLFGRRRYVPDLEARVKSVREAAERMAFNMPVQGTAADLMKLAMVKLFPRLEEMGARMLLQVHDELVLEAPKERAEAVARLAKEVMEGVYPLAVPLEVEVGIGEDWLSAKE
Consider the following binders and their measured kon readings.
Field: numeric (M⁻¹ s⁻¹). Do not append units.

Past entries and their recorded results:
BINDER: Mutation 1-47 (antibody, V domains shown, Mutation 1 background; CDRs built) VH: QVQLQQPGAELVKPGASVRLSCQTSVDTFTTYYIYWVKQRPGEGLEWIGGVNPTSNPVFNEKFKSKATLTVDTSSSTAYMQLSSLTSVDSAVYYCTRSIIRRGYYFDYWGQGTALTVSS VL: DIQMTQTTSSLSASLGDRVTISCRASQDINNYINWYQQKPDGTIKLLIYYTSRLNSGLPSRFSGSGSGTDYSLTIANLEQEDIATYFCQQDDTIPVTFGAGTKVELKR
MEASUREMENT_UNITS: M⁻¹ s⁻¹
READOUT_NUMBER: 63200
--
BINDER: Mutation 1-13 (antibody, V domains shown, Mutation 1 background; CDRs built) VH: QVQLQQPGAELVKPGASVRLSCQTSVDTFTTYYIYWVKQRPGEGLEWIGGINPTSNPVFNEKFKSKATLTVDTSSSTAYMQLSSLTSVDSAVYYCTRSVVRRGYYFDYWGQGTALTVSS VL: DIQMTQTTSSLSASLGDRVTISCRASQDINNYVNWYQQKPDGTIKLLIYYTSRLHSGVPSRFSGSGSGTDYSLTIANLEQEDIATYFCQQDDTVPITFGAGTKVELKR
MEASUREMENT_UNITS: M⁻¹ s⁻¹
READOUT_NUMBER: 61700
--
BINDER: Mutation 1-50 (antibody, V domains shown, Mutation 1 background; CDRs built) VH: QVQLQQPGAELVKPGASVRLSCQTSVNTFSTYYIYWVKQRPGEGLEWIGGVNPTSGGPVFNEKFKSKATLTVDTSSSTAYMQLSSLTSVDSAVYYCTRSVIRRGYYFDYWGQGTALTVSS VL: DIQMTQTTSSLSASLGDRVTISCRASQDIQNYLNWYQQKPDGTIKLLIYYTSRLQSGLPSRFSGSGSGTDYSLTIANLEQEDIATYFCQQDDTVPVTFGAGTKVELKR
MEASUREMENT_UNITS: M⁻¹ s⁻¹
READOUT_NUMBER: 50800

Please turn your attention to the following entry.
Consider the binder Mutation 1-5 (antibody, V domains shown, Mutation 1 background; CDRs built) VH: QVQLQQPGAELVKPGASVRLSCQTSVNTFTTYYIYWVKQRPGEGLEWIGGLNPTSGGPVFNEKFKSKATLTVDTSSSTAYMQLSSLTSVDSAVYYCTRSVIRRGYYFDYWGQGTALTVSS VL: DIQMTQTTSSLSASLGDRVTISCRASQDINNYINWYQQKPDGTIKLLIYYTSRLHSGLPSRFSGSGSGTDYSLTIANLEQEDIATYFCQQDDTVPLTFGAGTKVELKR and give its measured kon.
89100

Attribution: patent US20210403601A1
